Hey, just so you know, these numbers are from BindingDB's records for doi:10.1016/j.bmc.2006.09.058.

So I've got a bunch of compounds here, and I need their EC50 values.
- Study system: Sodium-dependent serotonin transporter (Homo sapiens, UniProt P31645, W103C)
- Sequence (P31645 whole entry W103C): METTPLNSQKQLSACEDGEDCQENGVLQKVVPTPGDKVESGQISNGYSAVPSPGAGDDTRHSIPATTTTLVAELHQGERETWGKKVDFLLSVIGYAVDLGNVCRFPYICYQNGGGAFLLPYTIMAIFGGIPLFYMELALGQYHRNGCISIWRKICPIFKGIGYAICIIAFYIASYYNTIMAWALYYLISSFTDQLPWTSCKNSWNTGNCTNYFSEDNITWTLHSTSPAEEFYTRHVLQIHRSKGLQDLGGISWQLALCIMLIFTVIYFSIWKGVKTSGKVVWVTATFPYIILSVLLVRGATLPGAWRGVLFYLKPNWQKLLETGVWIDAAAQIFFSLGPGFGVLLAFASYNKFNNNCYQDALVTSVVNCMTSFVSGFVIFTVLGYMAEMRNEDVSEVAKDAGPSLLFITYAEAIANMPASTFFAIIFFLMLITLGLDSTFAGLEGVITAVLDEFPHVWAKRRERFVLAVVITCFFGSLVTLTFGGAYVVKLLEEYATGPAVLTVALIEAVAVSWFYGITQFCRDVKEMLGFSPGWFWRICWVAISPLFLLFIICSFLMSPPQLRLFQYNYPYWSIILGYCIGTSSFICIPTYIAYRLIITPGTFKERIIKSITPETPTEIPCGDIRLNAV
- Experimental protocol: Decrease in [3H]5-HT uptake at human SERT W103C mutant transfected in HEK293 cells
Answers are plain numbers, in µM.

Smi: C[N+](C)(C)CCSS(C)(=O)=O
Unit abbreviation: µM
EC50: 501

// next item, EC50 requested
### Prompt Provide only the value of recorded EC50 for "C[n+]1ccc(-c2ccc(SS(C)(=O)=O)cc2)cc1"
### Response 31.6
